Exercise: state measured Fluorimetry % efficacy (retigabine 50 μM = 100%) for each of the compounds provided.
# measured on: KCNQ2/3 channels (Homo sapiens, UniProt O43525+O43526)
# Construct: expressed in transfected cells
# run description: Fluorescence assay using a voltage sensitive dye (fluorimetry)
# Format: cell-based
# run parameters: CHO-K1 cells expressing KCNQ2/3 channels; retigabine 50 μM = 100%
One number for each entry, in %.

- compound: "O=C(CCSc1ncccc1C(=O)NCc1cccs1)c1ccccc1"
  measured on: "KCNQ2/3 channels (Homo sapiens, UniProt O43525+O43526)"
  meas value: 53
- compound: "Cc1ccnc(SCCCc2ccc(F)cc2)c1C(=O)NCc1cccs1"
  measured on: "KCNQ2/3 channels (Homo sapiens, UniProt O43525+O43526)"
  meas value: 34
- compound: "CC(C)(C)CCNC(=O)c1cccnc1SCC(=O)Cc1ccccc1"
  measured on: "KCNQ2/3 channels (Homo sapiens, UniProt O43525+O43526)"
  meas value: 77
- compound: "O=C(NCC1CC2CCC1C2)c1cccnc1SCCCc1ccc(O)cc1 (stereo not shown)"
  measured on: "KCNQ2/3 channels (Homo sapiens, UniProt O43525+O43526)"
  meas value: 174

Return reported Fluorimetry % efficacy (retigabine 50 μM = 100%) values for all items listed beneath this line.
1. O=C(NCC1CC2CCC1C2)c1cccnc1SCCCc1ccc(F)cc1 (stereo not shown)
2. CC(C)(C)CCNC(=O)c1cccnc1SCCCc1ccc(F)cc1
3. O=C(NCc1cccs1)c1cccnc1CCCSc1cccc(C(F)(F)F)c1

1. 192
2. 164
3. 200

----------
# measured on: KCNQ2/3 channels (Homo sapiens, UniProt O43525+O43526)
# run description: Fluorescence assay using a voltage sensitive dye (fluorimetry)
# run parameters: CHO-K1 cells expressing KCNQ2/3 channels, agonistic activity
Label y when EC50 is strictly below 400 nM; at or above that, label n.

The following molecules have reported results that may help.
- molecule: "O=C(NCC1CC2CCC1C2)c1cccnc1SCCCc1ccccc1 (centres unmarked)"
  class name: "n"
- molecule: "O=C(NCC1CCCO1)c1cccnc1SCCC(F)(F)c1ccc(F)cc1 (centres unmarked)"
  class name: "y"

EC50 under 400 nM? Item: `CC(C)(C)CCNC(=O)c1cccnc1SCCC(F)(F)c1ccc(F)cc1` y

Next record, please: `O=C(NCC1Cc2ccccc2C1)c1cccnc1SCCCc1ccc(F)cc1` y

Next record, please: CC(C)CCNC(=O)c1cccnc1SC(C)CCc1ccc(F)cc1 (centres unmarked) y

Next record, please: `O=C(NCc1cccs1)c1cccnc1SCCCc1ccccn1` n

Next record, please: O=C(NCC1CC2CCC1C2)c1cccnc1SCCCc1cc(F)cc(C(F)(F)F)c1 (centres unmarked) y

Next record, please: `O=C(NCc1cccs1)c1cccnc1CCCSc1cccc(C(F)(F)F)c1` y

----------
# measured on: KCNQ2/3 channels (Homo sapiens, UniProt O43525+O43526)
# Construct: expressed in transfected cells
# run description: Fluorescence assay using a voltage sensitive dye (fluorimetry)
# Format: cell-based
# run parameters: CHO-K1 cells expressing KCNQ2/3 channels, agonistic activity
Exercise: state measured pEC50 for each of the compounds provided.
Numbers only, as −log10 of the molar value.

- compound: "O=C(NCC1CC2CCC1C2)c1cccnc1CCCCc1cccc(C(F)(F)F)c1 (stereo not drawn)"
  pEC50: 6.90

Return reported pEC50 values for all items listed beneath this line.
1. O=C(NCc1cccc(-c2ccncc2)c1)c1cccnc1SCCCc1ccc(F)cc1
2. CCCCNC(=O)c1cccnc1SCCC(F)(F)c1ccc(F)cc1
3. O=C(NCc1ccc(Cl)s1)c1cccnc1SCCCc1ccc(F)cc1

[6.17, 7.62, 7.13]

Return reported pEC50 values for all items listed beneath this line.
1. O=C(NCC12CCC(CC1)C2)c1cccnc1SCCC(F)(F)c1ccc(F)cc1
2. O=C(NCc1cccs1)c1cccnc1SCCCC1CCCCC1
3. CCC(CNC(=O)c1cccnc1SCCC(F)(F)c1ccc(F)cc1)OC (stereo not drawn)
4. O=C(NCc1ccc(F)cc1)c1cccnc1SCCC(F)(F)c1ccc(F)c(F)c1
5. O=C(NCC1CC2CCC1C2)c1cccnc1SCCCc1ccc(C(F)(F)F)c(F)c1 (stereo not drawn)
6. O=C(NCC1C2CCC1CC2)c1cccnc1SCCCc1ccc(F)cc1 (stereo not drawn)

1: 7.55; 2: 5.87; 3: 7.32; 4: 7.96; 5: 6.52; 6: 7.01

Return reported pEC50 values for all items listed beneath this line.
1. O=C(NCC1CC2CCC1C2)c1cccnc1CCCSc1ccc(F)cc1 (stereo not drawn)
2. CC(C)(C)CCNC(=O)c1cccnc1SCC(=O)Cc1ccccc1
3. O=C(CCSc1ncccc1C(=O)NCC1CC2CCC1C2)c1ccccc1 (stereo not drawn)

1: 6.20; 2: 5.57; 3: 5.53

Return reported pEC50 values for all items listed beneath this line.
1. O=C(NCC1C2CCC1CC2)c1cccnc1SCCCc1cccc(C(F)(F)F)c1 (stereo not drawn)
2. O=C(NCC1CC2CCC1C2)c1cccnc1SCCOc1cccc(C(F)(F)F)c1 (stereo not drawn)
3. O=C(NCCCn1ccnn1)c1cccnc1SCCCc1ccc(F)cc1
4. O=C(NCC1CC2CCC1C2)c1cccnc1CCCS(=O)(=O)c1cccc(C(F)(F)F)c1 (stereo not drawn)
5. CC(CCc1cccc(C(F)(F)F)c1)Sc1ncccc1C(=O)NCCC(C)(C)C (stereo not drawn)

1: 6.96; 2: 6.66; 3: 4.89; 4: 5.51; 5: 7.03

----------
# measured on: KCNQ2/3 channels (Homo sapiens, UniProt O43525+O43526)
# run description: Fluorescence assay using a voltage sensitive dye (fluorimetry)
# run parameters: CHO-K1 cells expressing KCNQ2/3 channels, agonistic activity
measured metric: log10(EC50) (log10 of the value in nM)
// stored as log10 of EC50 expressed in nM

- compound: "C[C@H](CCc1ccccc1)Sc1ncccc1C(=O)NCCC(C)(C)C"
  measured metric: "log10(EC50)"
  meas value: 3.10

Return reported log10(EC50) values for all items listed beneath this line.
1. CC(C)(C)C(O)CNC(=O)c1cccnc1SCCCc1ccc(F)cc1 (stereo not shown)
2. Cc1cc(CCCSc2ncccc2C(=O)NCc2cccs2)cc(C(F)(F)F)c1
3. CCCNC(=O)c1cccnc1SCCCc1ccc(F)cc1
4. O=C(NCc1ccc2c(c1)OCC2)c1cccnc1SCCCc1ccc(F)cc1
5. O=C(NCC1CC2CCC1C2)c1cccnc1SCCCc1cccc(F)c1 (stereo not shown)
6. O=C(NCC1CCCCCC1)c1cccnc1CCCSc1ccc(F)cc1
7. O=C(NCc1cc(F)cc(F)c1)c1cccnc1SCCCc1ccc(F)cc1
8. O=C(NCc1ccc2cccnc2c1)c1cccnc1SCCCc1ccc(F)cc1

1: 2.80; 2: 2.26; 3: 2.82; 4: 2.00; 5: 2.40; 6: 2.44; 7: 1.65; 8: 3.17

Return reported log10(EC50) values for all items listed beneath this line.
1. O=C(NCCc1ccncc1)c1cccnc1SCCCc1ccc(F)cc1
2. O=C(NCCO)c1cccnc1SCCC(F)(F)c1ccc(F)cc1
3. CC(C)(CCNC(=O)c1cccnc1SCCCc1ccc(F)cc1)c1ccccc1
4. O=C(NCc1ccc(OC(F)(F)F)cc1)c1cccnc1SCCCc1ccc(F)cc1
5. O=C(NCc1cccs1)c1cccnc1SCCCc1ccsc1
6. O=C(NCc1ccccc1F)c1cccnc1SCCCc1ccc(F)cc1
7. O=C(NCc1cccs1)c1cccnc1CCCCc1ccc(F)cc1

1: 3.74; 2: 3.95; 3: 2.73; 4: 2.00; 5: 2.28; 6: 1.53; 7: 3.37

Return reported log10(EC50) values for all items listed beneath this line.
1. O=C(NCC12CCC(CC1)C2)c1cccnc1SCCCc1ccc(F)cc1
2. O=C(NCc1ccc2c(c1)N(CC1CC1)CCO2)c1cccnc1SCCCc1ccc(F)cc1
3. O=C(NCc1ccccc1)c1cccnc1SCCCc1ccc(F)cc1

1. 1.60
2. 2.36
3. 1.70

----------
# measured on: KCNQ2/3 channels (Homo sapiens, UniProt O43525+O43526)
# run description: Fluorescence assay using a voltage sensitive dye (fluorimetry)
# run parameters: CHO-K1 cells expressing KCNQ2/3 channels, agonistic activity
Exercise: state measured EC50 for each of the compounds provided.
One number for each entry, in nM.

Some solved cases for reference:
- compound: "O=C(NCC1CCOCC1)c1cccnc1SCCC(F)(F)c1ccc(F)cc1 [compound 189]"
  measured on: "KCNQ2/3 channels (Homo sapiens, UniProt O43525+O43526)"
  EC50 [nM]: 287
- compound: "CN(C)CCNC(=O)c1cccnc1SCCC(F)(F)c1ccc(F)cc1 [compound 198]"
  measured on: "KCNQ2/3 channels (Homo sapiens, UniProt O43525+O43526)"
  EC50 [nM]: 8840

Return reported EC50 values for all items listed beneath this line.
1. O=C(NCc1cccc(-n2cccn2)c1)c1cccnc1SCCCc1ccc(F)cc1 [compound 140]
2. O=C(NCc1cccs1)c1cccnc1SCCCc1cccs1 [compound 104]
3. CCN1CCOc2ccc(CNC(=O)c3cccnc3SCCCc3ccc(F)cc3)cc21 [compound 161]
4. CC(CSc1ncccc1C(=O)NCc1cccs1)Sc1ccc(F)cc1 (stereo not drawn) [compound 19]
5. O=C(O)CCNC(=O)c1cccnc1SCCC(F)(F)c1ccc(F)cc1 [compound 197]
6. O=C(NCc1cccc(F)c1)c1cccnc1SCCC(F)(F)c1ccc(F)cc1 [compound 168]
7. CC(CCc1ccc(F)cc1)Sc1ncccc1C(=O)NCc1ccc(F)cc1 (stereo not drawn) [compound 176]

1. 312
2. 361
3. 145
4. 37
5. 14700
6. 17
7. 40
